Measured ELISA Assay Ratio b1/b7 values are reported for all entries that follow.
Target: recombinant integrin α4β7 (Homo sapiens, UniProt P13612+P26010, DEL724-798)
Construct: purchased R&D Systems 5397-A3-050
Sequence (P13612 34-970 limits assumed, stated change not applied): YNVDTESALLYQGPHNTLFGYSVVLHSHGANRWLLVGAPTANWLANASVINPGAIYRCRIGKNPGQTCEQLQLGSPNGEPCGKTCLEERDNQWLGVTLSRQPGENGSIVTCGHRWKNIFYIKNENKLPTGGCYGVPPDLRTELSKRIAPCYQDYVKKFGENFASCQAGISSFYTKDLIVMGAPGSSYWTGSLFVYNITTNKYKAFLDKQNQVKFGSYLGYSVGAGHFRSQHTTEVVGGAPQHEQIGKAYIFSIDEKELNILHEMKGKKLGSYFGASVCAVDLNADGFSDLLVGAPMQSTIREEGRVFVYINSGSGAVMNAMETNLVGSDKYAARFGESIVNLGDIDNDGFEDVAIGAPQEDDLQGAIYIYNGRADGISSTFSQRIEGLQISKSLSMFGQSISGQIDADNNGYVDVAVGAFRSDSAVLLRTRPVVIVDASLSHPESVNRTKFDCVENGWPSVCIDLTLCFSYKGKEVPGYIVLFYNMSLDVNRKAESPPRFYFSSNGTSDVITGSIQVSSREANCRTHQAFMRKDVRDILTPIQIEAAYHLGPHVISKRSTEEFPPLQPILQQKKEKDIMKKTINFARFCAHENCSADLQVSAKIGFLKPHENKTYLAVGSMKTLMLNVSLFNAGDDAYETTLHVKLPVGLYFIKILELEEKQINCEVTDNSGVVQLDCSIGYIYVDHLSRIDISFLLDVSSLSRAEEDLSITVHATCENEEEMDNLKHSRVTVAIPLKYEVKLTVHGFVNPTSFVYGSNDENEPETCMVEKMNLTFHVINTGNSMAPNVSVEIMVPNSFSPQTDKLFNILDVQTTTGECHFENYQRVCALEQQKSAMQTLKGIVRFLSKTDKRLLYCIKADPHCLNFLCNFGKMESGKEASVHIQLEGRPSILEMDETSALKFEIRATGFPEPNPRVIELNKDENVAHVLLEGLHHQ
Sequence (P26010 20-723 limits assumed, stated change not applied): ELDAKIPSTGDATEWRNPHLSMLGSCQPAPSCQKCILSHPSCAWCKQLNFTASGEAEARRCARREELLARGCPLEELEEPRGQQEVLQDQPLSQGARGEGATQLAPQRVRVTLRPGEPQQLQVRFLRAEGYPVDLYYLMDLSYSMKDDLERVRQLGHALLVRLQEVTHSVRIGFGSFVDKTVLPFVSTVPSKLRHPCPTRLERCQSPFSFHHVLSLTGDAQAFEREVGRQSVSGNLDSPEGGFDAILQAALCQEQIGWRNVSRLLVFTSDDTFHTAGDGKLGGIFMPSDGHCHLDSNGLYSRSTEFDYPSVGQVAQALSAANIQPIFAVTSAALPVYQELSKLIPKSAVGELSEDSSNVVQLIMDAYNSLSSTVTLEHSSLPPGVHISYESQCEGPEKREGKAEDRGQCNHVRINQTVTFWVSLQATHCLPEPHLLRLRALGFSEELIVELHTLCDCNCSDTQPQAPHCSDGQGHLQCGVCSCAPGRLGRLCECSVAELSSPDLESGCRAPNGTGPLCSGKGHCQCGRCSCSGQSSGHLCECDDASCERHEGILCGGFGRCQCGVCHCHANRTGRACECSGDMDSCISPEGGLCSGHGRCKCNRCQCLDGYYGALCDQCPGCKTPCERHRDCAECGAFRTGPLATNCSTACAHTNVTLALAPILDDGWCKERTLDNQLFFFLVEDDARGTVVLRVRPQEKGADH
Assay: Integrin α4β7—MAdCAM-1 ELISA competition assay
Assay type: binding
Details: ratio of a4b1 to a4b7 ELISA IC50
reported-property: ELISA Assay Ratio b1/b7

>  <compound-smiles>
CC(C)C[C@@H]1NC(=O)CN(C)C(=O)[C@H](Cc2cccc(I)c2)NC(=O)[C@@H]2CCCN2[C@H](C(=O)NC(C)(C)C)[C@H](C)NC(=O)[C@H]([C@@H](C)O)NC(=O)[C@H](CC(=O)O)NC1=O

>  <experimental-system>
recombinant integrin α4β7 (Homo sapiens, UniProt P13612+P26010, DEL724-798)

>  <reported-property>
ELISA Assay Ratio b1/b7

>  <experimental-value>
18.7

$$$$
>  <compound-smiles>
CC(C)C[C@@H]1NC(=O)[C@@H]2C[C@@H](OCc3ccccc3)CN2C(=O)[C@@H]2CCCN2[C@H](C(=O)NC(C)(C)C)[C@H](C)NC(=O)[C@H]([C@@H](C)O)NC(=O)[C@H](CC(=O)O)NC1=O

>  <experimental-system>
recombinant integrin α4β7 (Homo sapiens, UniProt P13612+P26010, DEL724-798)

>  <reported-property>
ELISA Assay Ratio b1/b7

>  <experimental-value>
2.5

$$$$
>  <compound-smiles>
CC(C)C[C@@H]1NC(=O)[C@H]2C[C@@H](O)CN2C(=O)[C@H](Cc2ccc(O)cc2)NC(=O)[C@@H]2CCCN2[C@H](C(=O)NC(C)(C)C)[C@H](C)NC(=O)[C@H]([C@@H](C)O)NC(=O)[C@H](CC(=O)O)NC1=O

>  <experimental-system>
recombinant integrin α4β7 (Homo sapiens, UniProt P13612+P26010, DEL724-798)

>  <reported-property>
ELISA Assay Ratio b1/b7

>  <experimental-value>
2.0

$$$$
>  <compound-smiles>
CC(C)C[C@@H]1NC(=O)[C@H]2CCCCN2C(=O)[C@H](Cc2ccccc2I)NC(=O)[C@@H]2CCCN2[C@H](C(=O)NC(C)(C)C)[C@H](C)NC(=O)[C@H]([C@@H](C)O)NC(=O)[C@H](CC(=O)O)NC1=O

>  <experimental-system>
recombinant integrin α4β7 (Homo sapiens, UniProt P13612+P26010, DEL724-798)

>  <reported-property>
ELISA Assay Ratio b1/b7

>  <experimental-value>
5.3

$$$$

====

Measured IC50 values are reported for all entries that follow.
Target: recombinant integrin α4β1 (Homo sapiens, UniProt P05556+P13612)
Construct: purchased R&D Systems 5397-A3-050
Sequence (P13612 34-970 limits assumed): as the sequence (P13612 34-970 limits assumed, stated change not applied) above
Sequence (P05556 21-728 limits assumed): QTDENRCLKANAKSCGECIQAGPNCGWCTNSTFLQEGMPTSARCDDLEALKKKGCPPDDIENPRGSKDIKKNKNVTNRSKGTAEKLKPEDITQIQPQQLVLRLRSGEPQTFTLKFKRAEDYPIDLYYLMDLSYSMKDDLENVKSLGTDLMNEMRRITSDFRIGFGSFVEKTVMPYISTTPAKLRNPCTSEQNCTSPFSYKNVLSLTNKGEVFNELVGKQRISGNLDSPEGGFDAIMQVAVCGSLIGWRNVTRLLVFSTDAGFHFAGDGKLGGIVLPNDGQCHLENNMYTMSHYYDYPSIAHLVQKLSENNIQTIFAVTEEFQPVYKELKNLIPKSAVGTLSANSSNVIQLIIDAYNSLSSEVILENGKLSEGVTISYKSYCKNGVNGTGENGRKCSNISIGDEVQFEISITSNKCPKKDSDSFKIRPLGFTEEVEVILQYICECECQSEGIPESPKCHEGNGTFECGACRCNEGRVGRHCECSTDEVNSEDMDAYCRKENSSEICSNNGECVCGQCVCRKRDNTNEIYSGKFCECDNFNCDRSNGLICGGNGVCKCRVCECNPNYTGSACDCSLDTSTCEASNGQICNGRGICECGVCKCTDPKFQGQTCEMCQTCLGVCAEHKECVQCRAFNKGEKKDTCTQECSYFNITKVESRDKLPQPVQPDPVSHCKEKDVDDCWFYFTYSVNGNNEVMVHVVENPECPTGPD
Experiment: Integrin α4β1—VCAM-1 competition ELISA
Format: binding
Settings: read-out: ELISA α4β1 Assay IC50

>  <compound-smiles>
CC(C)C[C@@H]1NC(=O)c2ccc(-c3ccc(N4CCN(C(=O)c5nccnc5C(=O)N5CCN(c6ccc(-c7ccc8cc7CNC(=O)[C@@H]7CCCN7[C@H](C(=O)NC(C)(C)C)[C@H](C)NC(=O)[C@H]([C@@H](C)O)NC(=O)[C@H](CC(=O)O)NC(=O)[C@H](CC(C)C)NC8=O)cc6)CC5)CC4)cc3)c(c2)CNC(=O)[C@@H]2CCCN2[C@H](C(=O)NC(C)(C)C)[C@H](C)NC(=O)[C@H]([C@@H](C)O)NC(=O)[C@H](CC(=O)O)NC1=O

>  <IC50 [nM]>
1

$$$$
>  <compound-smiles>
CC(C)C[C@@H]1NC(=O)C[C@H](CCCCN)N(C)C(=O)[C@H](CCCCNC(=O)c2ccccc2-c2ccccc2C(=O)NCCCC[C@@H]2NC(=O)[C@@H]3CCCN3[C@H](C(=O)NC(C)(C)C)[C@H](C)NC(=O)[C@H]([C@@H](C)O)NC(=O)[C@H](CC(=O)O)NC(=O)[C@H](CC(C)C)NC(=O)C[C@H](CCCCN)N(C)C2=O)NC(=O)[C@@H]2CCCN2[C@H](C(=O)NC(C)(C)C)[C@H](C)NC(=O)[C@H]([C@@H](C)O)NC(=O)[C@H](CC(=O)O)NC1=O

>  <IC50 [nM]>
9.7

$$$$
>  <compound-smiles>
CC(C)C[C@@H]1NC(=O)c2ccc(-c3ccc(N4CCN(C(=O)CCC(=O)N5CCN(c6ccc(-c7ccc8cc7CNC(=O)[C@@H]7CCCN7[C@H](C(=O)NC(C)(C)C)[C@H](C)NC(=O)[C@H]([C@@H](C)O)NC(=O)[C@H](CC(=O)O)NC(=O)[C@H](CC(C)C)NC8=O)cc6)CC5)CC4)cc3)c(c2)CNC(=O)[C@@H]2CCCN2[C@H](C(=O)NC(C)(C)C)[C@H](C)NC(=O)[C@H]([C@@H](C)O)NC(=O)[C@H](CC(=O)O)NC1=O

>  <IC50 [nM]>
1.2

$$$$
>  <compound-smiles>
CC(C)C[C@@H]1NC(=O)c2ccc(-c3ccc(N4CCN(C(=O)[C@H](CCCCNC(=O)CCCCCC(=O)NCCCC[C@H](NC(=O)OCc5ccccc5)C(=O)N5CCN(c6ccc(-c7ccc8cc7CNC(=O)[C@@H]7CCCN7[C@H](C(=O)NC(C)(C)C)[C@H](C)NC(=O)[C@H]([C@@H](C)O)NC(=O)[C@H](CC(=O)O)NC(=O)[C@H](CC(C)C)NC8=O)cc6)CC5)NC(=O)OCc5ccccc5)CC4)cc3)c(c2)CNC(=O)[C@@H]2CCCN2[C@H](C(=O)NC(C)(C)C)[C@H](C)NC(=O)[C@H]([C@@H](C)O)NC(=O)[C@H](CC(=O)O)NC1=O

>  <IC50 [nM]>
3

$$$$
>  <compound-smiles>
CC(C)C[C@@H]1NC(=O)c2ccc(-c3ccc(N4CCN(C(=O)CCOCCOCCOCCOCCOCCOCCOCCOCCOCCOCCC(=O)N5CCN(c6ccc(-c7ccc8cc7CNC(=O)[C@@H]7CCCN7[C@H](C(=O)NC(C)(C)C)[C@H](C)NC(=O)[C@H]([C@@H](C)O)NC(=O)[C@H](CC(=O)O)NC(=O)[C@H](CC(C)C)NC8=O)cc6)CC5)CC4)cc3)c(c2)CNC(=O)[C@@H]2CCCN2[C@H](C(=O)NC(C)(C)C)[C@H](C)NC(=O)[C@H]([C@@H](C)O)NC(=O)[C@H](CC(=O)O)NC1=O

>  <IC50 [nM]>
7.2

$$$$
>  <compound-smiles>
CC(C)C[C@@H]1NC(=O)c2ccc(-c3ccc(N4CCN(C(=O)CC[C@H](N)C(=O)N5CCN(c6ccc(-c7ccc8cc7CNC(=O)[C@@H]7CCCN7[C@H](C(=O)NC(C)(C)C)[C@H](C)NC(=O)[C@H]([C@@H](C)O)NC(=O)[C@H](CC(=O)O)NC(=O)[C@H](CC(C)C)NC8=O)cc6)CC5)CC4)cc3)c(c2)CNC(=O)[C@@H]2CCCN2[C@H](C(=O)NC(C)(C)C)[C@H](C)NC(=O)[C@H]([C@@H](C)O)NC(=O)[C@H](CC(=O)O)NC1=O

>  <IC50 [nM]>
1.9

$$$$
>  <compound-smiles>
CC(C)C[C@@H]1NC(=O)c2ccc(-c3ccc(N4CCN(C(=O)CCCCCCCCCCC(=O)N5CCN(c6ccc(-c7ccc8cc7CNC(=O)[C@@H]7CCCN7[C@H](C(=O)NC(C)(C)C)[C@H](C)NC(=O)[C@H]([C@@H](C)O)NC(=O)[C@H](CC(=O)O)NC(=O)[C@H](CC(C)C)NC8=O)cc6)CC5)CC4)cc3)c(c2)CNC(=O)[C@@H]2CCCN2[C@H](C(=O)NC(C)(C)C)[C@H](C)NC(=O)[C@H]([C@@H](C)O)NC(=O)[C@H](CC(=O)O)NC1=O

>  <IC50 [nM]>
6.3

$$$$
>  <compound-smiles>
CC(C)C[C@@H]1NC(=O)c2ccc(-c3ccc(N4CCN(C(=O)c5ccccc5-c5ccccc5C(=O)N5CCN(c6ccc(-c7ccc8cc7CNC(=O)[C@@H]7CCCN7[C@H](C(=O)NC(C)(C)C)[C@H](C)NC(=O)[C@H]([C@@H](C)O)NC(=O)[C@H](CC(=O)O)NC(=O)[C@H](CC(C)C)NC8=O)cc6)CC5)CC4)cc3)c(c2)CNC(=O)[C@@H]2CCCN2[C@H](C(=O)NC(C)(C)C)[C@H](C)NC(=O)[C@H]([C@@H](C)O)NC(=O)[C@H](CC(=O)O)NC1=O

>  <IC50 [nM]>
2.1

$$$$
>  <compound-smiles>
CC(C)C[C@@H]1NC(=O)c2ccc(-c3ccc(N4CCN(C(=O)CCOCCOCCNC(=O)CCCCCC(=O)NCCOCCOCCC(=O)N5CCN(c6ccc(-c7ccc8cc7CNC(=O)[C@@H]7CCCN7[C@H](C(=O)NC(C)(C)C)[C@H](C)NC(=O)[C@H]([C@@H](C)O)NC(=O)[C@H](CC(=O)O)NC(=O)[C@H](CC(C)C)NC8=O)cc6)CC5)CC4)cc3)c(c2)CNC(=O)[C@@H]2CCCN2[C@H](C(=O)NC(C)(C)C)[C@H](C)NC(=O)[C@H]([C@@H](C)O)NC(=O)[C@H](CC(=O)O)NC1=O

>  <IC50 [nM]>
6.6

$$$$

Just for reference, patent US11713338B2 is where these values come from.
